For each record, write down the corresponding Cell Cycle Distribution G2/M.
# Tested on: AGS cells
# Measurement protocol: Cell cycle distribution by flow cytometry
# Type: cell-based, human
# Recorded conditions: 10 μM, 24 h, Table 11
API note: the answer field is a bare number with no unit suffix.

Query: // lookup Cell Cycle Distribution G2/M for COc1cc(-c2cc(=O)c3c(OC)c(OC)c(OC)c(OC)c3o2)cc(OC)c1OC [F, 5,6,7,8,3′,4′,5′-heptamethoxyflavone, reference compound]
Result: 14.56

Query: Next: COc1cc(-c2cc(=O)c3c(OC)c(OC)c(OC)c(OC)c3o2)ccc1O
Result: 16.80

Query: Also COc1cc(-c2cc(=O)c3c(O)c(OC)c(OC)c(OC)c3o2)cc(OC)c1OC ?
Result: 16.00

Query: // same read-out, input: COc1ccc(-c2cc(=O)c3c(O)c(OC)c(OC)c(OC)c3o2)cc1O
Result: 48.12

Query: Repeat for the following molecule: COc1ccc(-c2oc3c(OC)c(OC)c(OC)c(O)c3c(=O)c2OC)cc1OC
Result: 22.0

Query: Would you mind doing COc1ccc(-c2cc(=O)c3c(OC)c(OC)c(OC)c(OC)c3o2)cc1O as well?
Result: 17.94

Query: Continue with COc1ccc(-c2cc(=O)c3c(O)c(OC)c(OC)c(OC)c3o2)cc1OC
Result: 13.84

Query: Input COc1ccc(-c2oc3c(OC)c(OC)c(OC)c(OC)c3c(=O)c2O)cc1OC
Result: 10.4

Query: Param item: COc1ccc(-c2cc(=O)c3c(OC)c(OC)c(OC)c(OC)c3o2)cc1OC [Compound A, 5,6,7,8,3′,4′-hexamethoxyflavone, reference compound]
Result: 5.0

Query: How about COc1ccc(-c2oc3c(OC)c(OC)c(OC)c(OC)c3c(=O)c2OC)cc1OC [D, 3,5,6,7,8,3,4-heptamethoxyflavone, reference compound] ?
Result: 1.3

Query: What do you get for COc1c(OC)c(OC)c2c(=O)cc(-c3ccc(O)c(O)c3)oc2c1OC ?
Result: 17.39
